Measured nuclear count per well, listed per entry for reference.
system: HeLa; test: nuclear count per well, robust Z-score vs DMSO; higher = more cells (less toxicity); details: 10 µM; 6 h;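 further: Hoechst-stained nuclei counted by automated confocal imaging of four fields per well in 384-well plates, with the robust Z-score based on the per-plate DMSO median and robust SD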
Where a name gives a salt, the structure may show the parent alone.
Measurement label: nuclear count per well

Cc1ccc(N(CC2=NCCN2)c2cccc(O)c2)cc1 ... 0.0584
O=S(=O)(O)CCS ... -0.802
O=C1CCC(N2C(=O)c3ccccc3C2=O)C(=O)N1 (stereo not given) [Thalidomide] ... 0.328
CCOC(=O)C1=C(C)NC(C)=C(C(=O)OC)C1c1cccc(Cl)c1Cl (stereo not given) ... 0.179
COc1ccccc1OCC(O)CN1CCN(CC(=O)Nc2c(C)cccc2C)CC1 (stereo not given) [Ranolazine dihydrochloride] ... 1.21
